Reference source: PubChem BioAssay (NCI)

tested on: MDA-MB-435 melanoma; assay: NCI-60 one-dose screen, 48 h (100 = growth as untreated, 0 = no growth, -100 = all killed); conditions: 10 µM
About 83,000 compounds went through this panel and 20% of them were active in at least one assay; those are over-represented in the sample as a whole.
Parameter: growth. Scope: all listed entries.
Number in %, nothing else.

Some compounds with known growth results, for comparison:
>>> quantitativereadout("N#Cc1ncc(-c2cc(F)ccc2F)c(NC2CCCCCC2)n1")
93.6
>>> quantitativereadout("COc1ccc(C(=O)c2sc3nc(-c4cccs4)ccc3c2N)cc1OC")
5.62
>>> quantitativereadout("CCCCCC(CCC)COC(=O)c1ccc(OC)cc1 (stereo unspecified)")
106
>>> quantitativereadout("Cc1cc(C)c(/C=C2\\C(=O)Nc3ccc(NC(=O)CCCCCCC(=O)NO)cc32)[nH]1")
2.24
>>> quantitativereadout("O=C(NCCCl)c1cc(Cl)cc(Cl)c1")
99.9
>>> quantitativereadout("COc1ccc(C2C=C(c3ccc(Cl)c(Cl)c3)N=C3SC(C)=CN32)cc1OC (stereo unspecified)")
69.4
>>> quantitativereadout("COc1c(-c2c3sc(=O)[nH]c3nc3c2c(=O)[nH]n3C(C)C)cc2c(c1OC)OCO2")
90.9
>>> quantitativereadout("c1ccc(OCCC[P+](c2ccccc2)(c2ccccc2)c2ccccc2)cc1")
0.653
>>> quantitativereadout("Nc1nc(SCC#CCCl)c2[nH]cnc2n1")
46.7
>>> quantitativereadout("C=C[C@]1(C)C=C2C(=O)[C@@]3(O)OC(=O)[C@@]4(CCCC(C)(C)[C@H]34)[C@@]2(O)CC1")
-90.6

Attention now turns to another entry.
Field request: growth | item: FC(F)(F)c1ccc(-c2cnc(Cl)nc2NC2CCCCCC2)cc1
11

---

tested on: HOP-92 NSCLC; assay: NCI-60 one-dose screen, 48 h (100 = growth as untreated, 0 = no growth, -100 = all killed); conditions: 10 µM
Compounds without any hit were thinned out: in the full panel of roughly 83,000, 20% have a hit.
Parameter: growth. Scope: all listed entries.
Number in %, nothing else.

Field request: growth | item: COc1ccc2nc(C)cc(Nc3ccc(Cl)cc3)c2c1
156

---

test system: SK-MEL-2 melanoma; experiment: NCI-60 one-dose screen, 48 h; conditions: 10 µM
About 83,000 compounds went through this panel and 20% of them were active in at least one assay; those are over-represented in the sample as a whole. Calls of active or inactive are those of the source. The calls were made as follows: active = growth percent below 10; inactive = the rest.
Your answer must be one of the following: true (1) = active, false (0) = inactive

>>> classification("CCOc1ccc2c(c1)CC[C@@H]1[C@@H]2CC[C@]2(C)[C@@H](O)[C@@H](O)C[C@@H]12")
"false (0)"
>>> classification("CCCCC(=O)N(c1ccc(Nc2c3ccccc3nc3cc([N+](=O)[O-])ccc23)cc1)S(C)(=O)=O")
"false (0)"
>>> classification("CC(=O)c1c(O)cc2c3c1OC(C)(C)C1CCC(C)(CC31)O2 (stereo not given)")
"false (0)"
>>> classification("O=C(CCl)N1c2ccccc2Sc2ccc3ccccc3c21")
"true (1)"

Okay, now this molecule:
I would be grateful if you could indicate the recorded call for O=C1CC(c2cccc(-c3cccnc3)c2)=Nc2ccc(Br)cc2N1 .
false (0)

---

system: K-562 leukemia; assay: NCI-60 one-dose screen, 48 h (100 = growth as untreated, 0 = no growth, -100 = all killed); conditions: 10 µM
This is part of a sample that, as a whole, favours compounds with a hit. Of some 83,000 tested, about 20% had one in any assay.
Rule: growth under 70% gives -1, otherwise 1.

These recorded examples may help you get a feel for the data.
>>> classification("C=C[C@]1(C)C=C2C(=O)[C@@]3(O)OC(=O)[C@@]4(CCCC(C)(C)[C@H]34)[C@@]2(O)CC1")
-1
>>> classification("O=C(O)CCCCSCCCCC(=O)O")
1
>>> classification("O=C(/C=C/c1ccc(Cl)cc1)c1ccc(Br)cc1")
1
>>> classification("COc1cccc(C2(C)Nc3ccccc3-c3nc4ccccc4n32)c1 (configuration not stated)")
1
>>> classification("CCc1ccc(-c2nnc(COc3ccc(-c4nc5ccccc5[nH]4)cc3OC)o2)cc1")
-1
>>> classification("Cc1ccc(NC(=O)/C=N/O)cc1C")
1
>>> classification("CC(C)(C)c1ccc(OCCCCCCN2CCNCC2)cc1")
-1
>>> classification("COc1ccc(N2CCN(c3nc(-c4ccccc4)c(C#N)c(=O)[nH]3)CC2)cc1")
1

Given COc1ccc(-c2nc(-c3nc4ccc(C)cc4[nH]3)c3ccccn23)cc1 , state whether its growth is at least 70%.
-1

Same again, this time with CCOC(=O)c1cc2c(n1Cc1cc(OC)cc(OC)c1)-c1oncc1CC2
-1

Same again, this time with COc1ccc(C2CC(c3ccc(-c4ccccc4)cc3)=NN2c2ccc(S(N)(=O)=O)cc2)cc1 (configuration not stated)
-1

Same again, this time with COc1ccc(COC(=O)CC(C)C)cc1
1

Same again, this time with N#Cc1cnc2ccc(NCc3cnc[nH]3)cc2c1Nc1ccc(F)c(Cl)c1
-1

Same again, this time with Cc1nc2ccc(-n3c(-c4ccc(Cl)cc4)nc4ccccc4c3=O)cc2n1Cc1ccccc1
1

Same again, this time with CCCCCCCCCCCCCC[n+]1ccc(C)cc1
-1

Same again, this time with CCOC(=O)[C@@H](Cc1ccccc1)NC(=O)c1[nH]c2ccc(Cl)cc2c(=O)c1C
1

Same again, this time with CC(C)C[C@H](NC(=O)Cn1ccc2ccccc2c1=O)B(O)O
-1

---

tested on: HCT-15 colon; test: NCI-60 one-dose screen, 48 h (100 = growth as untreated, 0 = no growth, -100 = all killed); conditions: 10 µM
This is part of a sample that, as a whole, favours compounds with a hit. Of some 83,000 tested, about 20% had one in any assay.
Parameter: growth. Scope: all listed entries.
Number in %, nothing else.

>>> quantitativereadout("Cc1cc(C)c(/C=C2\\C(=O)Nc3ccc(NC(=O)CCCCCCC(=O)NO)cc32)[nH]1")
86
>>> quantitativereadout("O=C(O)CN1C(=O)C=CC1=O")
100
>>> quantitativereadout("COc1cc(C(c2c[nH]c3ccccc23)N2CCCC2)ccc1OCc1ccccc1 (stereo unspecified)")
77.1
>>> quantitativereadout("COc1cc(-c2nc3ccc(C)cc3[nH]2)ccc1OCC(=O)N=Nc1c(O)[nH]c2ccccc12")
52.7
>>> quantitativereadout("Fc1ccc(Nc2ccnc(N3CCN(c4ccnc5cc(Cl)ccc45)CC3)n2)cc1")
38.4

Attention now turns to another entry.
Field request: growth | item: COc1ccc(COC(=O)CC(C)C)cc1
105

---

Parameter: growth. Scope: all listed entries.
test system: HS 578T breast; assay: NCI-60 one-dose screen, 48 h (100 = growth as untreated, 0 = no growth, -100 = all killed); conditions: 10 µM
Compounds without any hit were thinned out: in the full panel of roughly 83,000, 20% have a hit.
Number in %, nothing else.

>>> quantitativereadout("O=NN(CCCl)C(=O)NCc1ccc(-c2ccc(CNC(=O)N(CCCl)N=O)cc2)cc1")
116
>>> quantitativereadout("Cc1noc(C)c1-c1ccc2nc(NC(=O)[C@H]3CCN(C#N)C3)cn2c1")
84.4
>>> quantitativereadout("O=CNc1c(Cl)cc2c(c1Cl)Cc1cc([N+](=O)[O-])ccc1-2")
75.3

Field request: growth | item: CCC1(C)OC(=O)NC1=O (centres undefined)
109

Same again, this time with N=C(N)c1ccc(-c2ccc(-c3ccccc3)s2)cc1F
-41.6

---

system: UACC-257 melanoma; assay: NCI-60 one-dose screen, 48 h (100 = growth as untreated, 0 = no growth, -100 = all killed); conditions: 10 µM
The panel holds about 83,000 compounds, 20% with a hit somewhere; the sample as a whole holds those more often.
Rule: growth under 90% gives not satisfied, otherwise satisfied.

Given Cc1cnc(C=O)c2cccc([N+](=O)[O-])c12 , state whether its growth is at least 90%.
satisfied

Same again, this time with Nc1c(C(=O)Nc2ccccc2F)sc2nc3c(cc12)C(=O)CCC3
not satisfied

Same again, this time with O=C1/C(=C/c2ccc(O)cc2)Oc2ccc(Cl)cc21
not satisfied

Same again, this time with CCOC(=O)CSC(=S)SCC(=O)OCC
not satisfied

Same again, this time with C[C@H](NC(=O)[C@@H]1CSSC[C@@H](NC(=O)Cc2nc3ccccc3cc2O)C(=O)NCC(=O)N1C)c1ccccc1
not satisfied

---

Parameter: growth. Scope: all listed entries.
system: SF-539 CNS; assay: NCI-60 one-dose screen, 48 h (100 = growth as untreated, 0 = no growth, -100 = all killed); settings: 10 µM
The panel holds about 83,000 compounds, 20% with a hit somewhere; the sample as a whole holds those more often.
Number in %, nothing else.

Some molecules with known growth results, for comparison:
>>> quantitativereadout("O=C(Nc1cccc(F)c1)Nc1cccc(Cl)c1")
105
>>> quantitativereadout("COc1cc(-c2cc(/C=C/C(C)=O)[nH]n2)cc(OC)c1OC")
93.4
>>> quantitativereadout("CCc1ccc(-c2nnc(COc3ccc(-c4nc5ccc(C)cc5[nH]4)cc3OC)o2)cc1")
-28.2
>>> quantitativereadout("CCc1ccc(-c2nnc(COc3ccc(-c4nc5cc(Cl)c(Cl)cc5[nH]4)cc3OC)o2)cc1")
26.1
>>> quantitativereadout("COc1ccc(-c2nc(SCC(=O)c3ccc(Br)cc3)[nH]c(=O)c2C#N)cc1")
111
>>> quantitativereadout("COc1ccc(C(=O)/C=C/c2cc(-c3ccc4c(c3)OCO4)n[nH]2)cc1OC")
42.2

Observed growth on SF-539 CNS for O=C(Nc1cccc(Cl)c1)OCC(COC(=O)Nc1cccc(Cl)c1)(COC(=O)Nc1cccc(Cl)c1)[N+](=O)[O-] , please.
59.5

Same again, this time with CCCc1c(C)nc2scc(-c3ccc(Cl)cc3)n2c1=O
101

Same again, this time with C=CCN1C(=O)/C(=C\c2ccc3c(c2)CCC3)SC1=S
95.5

Same again, this time with CCCC(C)c1ccc(OCCCCCCN2CCNCC2)cc1 (stereo not given)
56.1
